- assay-system: α2-GABAA receptor (Homo sapiens, UniProt P18507+P47869)
- Construct: expressed in transfected cells
- method-summary: Whole-cell patch-clamp electrophysiology, positive allosteric modulatory activity in α2-GABAAR-HEK293 cells
- Assay type: cell-based
- conditions: compound 100 nM; GABA 0.10 to 0.11 µM (approximately EC7-8); normalized to reference compound CVL-865 (= 100%); read-out: α2-GABAAR Positive allosteric modulatory activity
assay-readout: Emax at 0.1 µM (%)

Recorded Emax at 0.1 µM, per entry:
Input: Fill in: Emax at 0.1 µM of `CCCNC(=O)c1nc2c(-c3cccc(C#N)c3)cccn2c1N` is ___
Output: 108

Input: Fill in: Emax at 0.1 µM of `CCCNC(=O)c1nc2c(-c3c(C#N)cccc3OC)c(F)ccn2c1N` is ___
Output: 51

Input: Fill in: Emax at 0.1 µM of `CCCNC(=O)c1nc2c(-c3c(F)cccc3OC)c(F)ccn2c1N` is ___
Output: 105

P. CCCNC(=O)c1nc2c(-c3cccnc3OC)cccn2c1N
Q. CCCNC(=O)c1nc2c(-c3cncc(C#N)c3)cccn2c1N
Input: Which value of Emax at 0.1 µM is greater, the one for P or the one for Q ? Mark your answer with the label of the selected entry.
Output: P

A. COc1cccc(F)c1-c1cccn2c(N)c(C(=O)NCCCF)nc12
B. CC#Cc1cccc(-c2cccn3c(N)c(C(=O)NCCC)nc23)c1
C. COc1cccc(F)c1-c1cccn2c(N)c(C(=O)NCCCO)nc12
D. CCCNC(=O)c1nc2c(-c3cccc(CC#N)c3)cccn2c1N
Input: Please list the entries, largest Emax at 0.1 µM first. Please write the labels in the order that was asked for.
Output: D, A, C, B

a. CCNC(=O)c1nc2c(-c3c(F)cccc3OC)cccn2c1N
b. CCCNC(=O)c1nc2c(-c3cccnc3F)cccn2c1N
c. CCCNC(=O)c1nc2c(-c3c(F)cccc3OC)c(C#N)ccn2c1N
Input: Rank items: key Emax at 0.1 µM, increasing. Please write the labels in the order that was asked for.
Output: a, b, c

* * *

- assay-system: α2-GABAA receptor (Homo sapiens, UniProt P18507+P47869)
- Construct: expressed in transfected cells
- method-summary: Radioactive ligand (3H-flunitrazepam) competitive binding assay, BZD site of membrane proteins of α2-GABAAR-HEK293 cells
- conditions: competition with 1 nM 3H-flunitrazepam; HEK293 membranes expressing α2, β3, γ2 subunits; Ki calculated from IC50; read-out: α2 Ki
assay-readout: Ki (µM)

Recorded Ki, per entry:
Input: Fill in: Ki of [2H]C([2H])([2H])Oc1cccc(F)c1-c1cccn2c(N)c(C(=O)NCCC)nc12 [Example 138] is ___
Output: 0.0111

Input: Fill in: Ki of COc1cccc(F)c1-c1cccn2c(N)c(C(=O)NCc3ccccc3)nc12 [Example 19] is ___
Output: 0.0139

Input: Fill in: Ki of CCCNC(=O)c1nc2c(-c3cc(OC)ccc3OC)cccn2c1N [Example 69] is ___
Output: 0.0308

Input: Fill in: Ki of CCCNC(=O)c1nc2c(-c3cc(F)cc(C#N)c3)cccn2c1N [Example 55] is ___
Output: 0.0278

Input: Fill in: Ki of COc1cccc(F)c1-c1cccn2c(N)c(C(=O)NC3CC3)nc12 [Example 5] is ___
Output: 0.039

a. CCCNC(=O)c1nc2c(-c3ccccc3OC)cccn2c1N [Example 61]
b. CCCNC(=O)c1nc2c(Oc3cc(F)ccc3OC)cccn2c1N [Example 144]
Input: Which value of Ki is greater, the one for a or the one for b ? Mark your answer with the label of the selected entry.
Output: a
(a: 0.0394 µM, b: 0.00497 µM)

A. CCCNC(=O)c1nc2c(-c3cc4c(cc3OC)N(C)C(=O)CO4)c(F)ccn2c1N [Example 123]
B. CCCNC(=O)c1nc2c(OCc3c(F)cccc3OC)cccn2c1N [Example 151]
C. CCCNC(=O)c1nc2c(-c3cc(C(F)F)ccc3OC)cccn2c1N [Example 67]
D. CCCNC(=O)c1nc2c(-c3cccc(Cl)c3F)cccn2c1N [Example 66]
Input: Rank items: key Ki, increasing. Please write the labels in the order that was asked for.
Output: D, A, C, B
(D: 0.00244 µM, A: 0.00497 µM, C: 0.015 µM, B: 0.087 µM)

a. CCCNC(=O)c1nc2c(-c3c(F)cccc3OC)c(F)ccn2c1N [Example 122]
b. CCCNC(=O)c1nc2c(-c3cccc(F)c3)cccn2c1N [Example 46]
c. CCCNC(=O)c1nc2c(-c3cc(C)cnc3OC)cccn2c1N [Example 83]
Input: Please list the entries, largest Ki first. Please write the labels in the order that was asked for.
Output: b, a, c

* * *

- assay-system: α2-GABAA receptor (Homo sapiens, UniProt P18507+P47869)
- Construct: expressed in transfected cells
- method-summary: Whole-cell patch-clamp electrophysiology, positive allosteric modulatory activity in α2-GABAAR-HEK293 cells
- Format: cell-based
- conditions: compound 100 nM; GABA 0.10 to 0.11 µM (approximately EC7-8); normalized to reference compound CVL-865 (= 100%); read-out: α2-GABAAR Positive allosteric modulatory activity
assay-readout: Emax at 0.1 µM (%)

1. COc1cccc(F)c1-c1cccn2c(N)c(C(=O)NC3CCC3)nc12 [Example 7]
2. CCCNC(=O)c1nc2c(-c3cc(C)ccc3F)cccn2c1N [Example 50]
Input: Which value of Emax at 0.1 µM is greater, the one for 1 or the one for 2 ? Mark your answer with the label of the selected entry.
Output: 2
(2: 104%, 1: 52%)

A. CCCNC(=O)c1nc2c(-c3cn4ccnc4cc3OC)cccn2c1N [Example 94]
B. COc1cccc(F)c1-c1cccn2c(N)c(C(=O)NC34CC(C3)C4)nc12 [Example 11]
C. CCCNC(=O)c1nc2c(-c3c(F)ccc4ncoc34)cccn2c1N [Example 100]
D. CCCNC(=O)c1nc2c(-c3cc(F)ccc3OC)c(F)ccn2c1N [Example 110]
Input: Please list the entries, largest Emax at 0.1 µM first. Please write the labels in the order that was asked for.
Output: D, C, A, B
(D: 141%, C: 94%, A: 51%, B: 27%)

a. CCCNC(=O)c1nc2c(-c3cc4cnn(C)c4cc3OC)cccn2c1N [Example 95]
b. COc1cccc(F)c1-c1cccn2c(N)c(C(=O)NCc3ccccc3)nc12 [Example 19]
c. CCCNC(=O)c1nc2c(-c3cccnc3OC)c(F)ccn2c1N [Example 115]
d. COCCNC(=O)c1nc2c(-c3c(F)cccc3OC)cccn2c1N [Example 24]
Input: Please list the entries, largest Emax at 0.1 µM first. Please write the labels in the order that was asked for.
Output: c, b, d, a

a. CCCNC(=O)c1nc2c(-c3cc4c(cc3OC)N(C)CCO4)cccn2c1N [Example 92]
b. CCCNC(=O)c1nc2c(-c3cc(C)cnc3OC)cccn2c1N [Example 83]
Input: Which value of Emax at 0.1 µM is greater, the one for a or the one for b ? Mark your answer with the label of the selected entry.
Output: b
(b: 164%, a: 33%)

* * *

- assay-system: α2-GABAA receptor (Homo sapiens, UniProt P18507+P47869)
- Construct: expressed in transfected cells
- method-summary: Whole-cell patch-clamp electrophysiology, positive allosteric modulatory activity in α2-GABAAR-HEK293 cells
- Assay type: cell-based
- conditions: compound 100 nM; GABA 0.10 to 0.11 µM (approximately EC7-8); normalized to reference compound CVL-865 (= 100%); read-out: α2-GABAAR Positive allosteric modulatory activity
assay-readout: Emax at 0.1 µM (%)

Recorded Emax at 0.1 µM, per entry:
Input: Fill in: Emax at 0.1 µM of `CCCNC(=O)c1nc2c(-c3c(F)ccc(C)c3OC)cccn2c1N` is ___
Output: 74

Input: Fill in: Emax at 0.1 µM of `COc1cccc(F)c1-c1cccn2c(N)c(C(=O)Nc3cc(C)on3)nc12` is ___
Output: 200

Input: Fill in: Emax at 0.1 µM of `CCCNC(=O)c1nc2c(-c3c(F)ccc4ccoc34)cccn2c1N` is ___
Output: 112

Input: Fill in: Emax at 0.1 µM of `CC1CN(C(=O)c2nc3c(-c4c(F)ccc5ccoc45)cccn3c2N)C1` is ___
Output: 44

Input: Fill in: Emax at 0.1 µM of `CCCNC(=O)c1nc2c(-c3c(F)ccc4c3OCC4)cccn2c1N` is ___
Output: 100

1. COc1cccc(F)c1-c1cccn2c(N)c(C(=O)NCCO)nc12
2. CCCNC(=O)c1nc2c(-c3cnc(OC)nc3OC)cccn2c1N
Input: Which value of Emax at 0.1 µM is greater, the one for 1 or the one for 2 ? Mark your answer with the label of the selected entry.
Output: 2
(2: 48%, 1: 25%)

a. CCCNC(=O)c1nc2c(-c3c(F)cccc3COC)cccn2c1N
b. CCCNC(=O)c1nc2c(-c3c(C#N)cccc3OC)cccn2c1N
Input: Looking at recorded values for Emax at 0.1 µM, does a or b come in lower? Mark your answer with the label of the selected entry.
Output: a
(a: 36%, b: 64%)
